experiment: chemical genetic growth profiling, strain panel (AID 1159580);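 note: tested at 20 µM; growth read once vehicle control cultures reached saturation at 30 °C; 1 = growth at the plate median or of vehicle wells; lower values mean less growth of the strain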; settings: S. cerevisiae deletion strains, growth OD, locus YLR058C, strain SHM2, stronger effect = lower value
The campaign covered roughly 5,500 compounds. About 2,000 (36%) were called active. Not shown: some 18% with an inconclusive outcome. The list shows a part of the results.
MEASUREMENT LABEL: normalized growth
Answers are plain numbers.

Solved entries (count: 10):
| MOLECULE | normalized growth |
| --- | --- |
| COc1ccc(OC)c(C(O)C(C)N)c1 (configuration not stated) | 1.01 |
| CCS(=O)CCSP(=O)(OC)OC (configuration not stated) | 1.02 |
| CC(C(=O)O)c1ccc(-c2ccccc2)c(F)c1 (configuration not stated) | 0.99 |
| NC(=O)c1ccc[n+]([C@@H]2O[C@H](COP(=O)([O-])OP(=O)(O)OC[C@H]3O[C@@H](n4cnc5c(N)ncnc54)[C@H](O)[C@@H]3O)[C@@H](O)[C@H]2O)c1 | 0.977 |
| COc1ccc2cc([C@H](C)C(=O)O)ccc2c1 | 1.01 |
| CC(NCCc1ccc(O)cc1)C(O)c1ccc(O)cc1 (configuration not stated) | 0.988 |
| CC1(C)C(C=C(Cl)Cl)C1C(=O)OC(C#N)c1cccc(Oc2ccccc2)c1 (configuration not stated) | 0.993 |
| COC1=CC(=O)C[C@@H](C)[C@]12Oc1c(Cl)c(OC)cc(OC)c1C2=O | 0.996 |
| NCCSSCCN | 1.01 |
| COc1ccc2c(c1OC)C(=O)O[C@H]2[C@H]1c2cc3c(cc2CCN1C)OCO3 | 1 |

Batch request: normalized growth for each of the following molecules.
1. CNC(C)[C@H](O)c1ccccc1 (some centres not stated)
2. Cc1cccc(C)c1OCC(C)N (configuration not stated)

-- reply
1. 1.01
2. 0.998

====

assay: chemical genetic growth profiling, strain panel (AID 1159580); settings: S. cerevisiae deletion strains, growth OD, locus YOR080W, strain dia2, stronger effect = lower value
Hit rate of the full screen: of about 5,500 compounds, about 2,000 (36%) were called active. About 18% were inconclusive and are not listed. The list shows a part of the results.
Entries whose normalized growth is below 1 take MET; entries at or above 1 take NOT MET.

| COMPOUND | GROUP LABEL |
| --- | --- |
| CC1=C(/C=C/C(C)=C/C=C/C(C)=C/C=C/C=C(C)/C=C/C=C(C)/C=C/C2=C(C)C(=O)C(O)CC2(C)C)C(C)(C)CC(O)C1=O (stereo unspecified) | NOT MET |
| CCOC(=O)C(C)(C)Oc1ccc(Cl)cc1 | MET |
| CCN(CC)CCCC(C)Nc1c2ccc(Cl)cc2nc2ccc(OC)cc12 (stereo unspecified) | NOT MET |
| N=c1ccn2c(n1)O[C@@H]1C2O[C@H](CO)[C@H]1O (stereo partly specified) | MET |
| CN(C)c1ccc(C(=C2C=CC(=[N+](C)C)C=C2)c2ccc(N(C)C)cc2)cc1 | MET |
| CC1=C(/C=C/C(C)=C/C=C/C(C)=C/C=C/C=C(C)/C=C/C=C(C)/C=C/C(=O)[C@]2(C)C[C@@H](O)CC2(C)C)C(C)(C)C[C@H](O)C1 | NOT MET |
| CS(=O)(=O)c1ccc(C2=C(c3ccccc3)C(=O)OC2)cc1 | MET |

-- ask normalized growth under 1? Item: CCOC(=O)c1c(C)cc(O)c(C=O)c1O
-- reply MET

====

assay: chemical genetic growth profiling, strain panel (AID 1159580); conditions: S. cerevisiae deletion strains, growth OD, locus YNL020C, strain ARK1
The whole screen tested about 5,500 compounds, of which about 2,000 (36%) were called active. Not shown: some 18% with an inconclusive outcome. Rule as the data show it: active = normalized growth mostly below about 0.91 (no sharp cut-off); inconclusive = no clear call, values can overlap the other calls; inactive = mostly above about 0.92. Some of the results follow.
# output must be one of True (active), False (inactive)

-- ask Please let me know the test result on file for O=C1C(=O)N(CN2CCc3c([nH]c4ccccc34)C2C(F)(F)F)c2ccc(F)cc21 (stereo unspecified) .
-- reply False

-- ask Please let me know the test result on file for COc1cc2c(cc1OC)C(C)N(C(=O)c1sc3ccccc3c1Cl)CC2 (stereo unspecified) .
-- reply False

-- ask Please let me know the test result on file for Cc1cc(Cl)ccc1NNC(=O)c1ccno1 .
-- reply False

-- ask Please let me know the test result on file for COc1cc(NC(=S)NNS(=O)(=O)c2ccc(C)cc2)c(OC)cc1Cl .
-- reply False

-- ask Please let me know the test result on file for OC1(C(F)(F)F)CC(C23CC4CC(CC(C4)C2)C3)=NN1 (stereo unspecified) .
-- reply True

====

assay: chemical genetic growth profiling, strain panel (AID 1159580);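 note: tested at 20 µM; growth read once vehicle control cultures reached saturation at 30 °C; 1 = growth at the plate median or of vehicle wells; lower values mean less growth of the strain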; conditions: S. cerevisiae deletion strains, growth OD, locus YNL250W, strain rad50, stronger effect = lower value
The whole screen tested about 5,500 compounds, of which about 2,000 (36%) were called active. About 18% were inconclusive and are not listed. Some of the results follow.
Entries whose normalized growth is below 1 take rule met; entries at or above 1 take rule not met.

| COMPOUND | GROUP LABEL |
| --- | --- |
| CCC(=O)O[C@H]1[C@H](O[C@@H]2[C@@H](C)[C@H](O[C@H]3C[C@@](C)(OC)[C@@H](O)[C@H](C)O3)[C@@H](C)C(=O)O[C@H](CC)[C@@](C)(O)[C@H](O)[C@@H](C)C(=O)[C@H](C)C[C@@]2(C)O)O[C@H](C)C[C@@H]1N(C)C | rule not met |
| CC1(C)OC(=O)NC1=O | rule met |
| C=C(C)C1CNC(C(=O)O)C1CC(=O)O (stereo unspecified) | rule not met |
| C[C@]12CCC(=O)C=C1CCC1C2CC[C@@]2(C)C1CC[C@@H]2O (stereo partly specified) | rule not met |
| CC(=O)C1CCC2C3CC(=O)C4=CC(=O)CCC4(C)C3CCC12C (stereo unspecified) | rule met |
| CCCCNc1cc(C(=O)O)cc(S(N)(=O)=O)c1Oc1ccccc1 | rule met |

Shifting focus to the compound that follows.
-- ask normalized growth under 1? Item: CC(=O)[C@H]1CCC2C3CCC4=CC(=O)CC[C@]4(C)C3CC[C@@]21C (stereo partly specified)
-- reply rule met

====

assay: chemical genetic growth profiling, strain panel (AID 1159580);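 note: tested at 20 µM; growth read once vehicle control cultures reached saturation at 30 °C; 1 = growth at the plate median or of vehicle wells; lower values mean less growth of the strain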; conditions: S. cerevisiae deletion strains, growth OD, locus YGL086W, strain mad1
The campaign covered roughly 5,500 compounds. About 2,000 (36%) were called active. Roughly 18% stayed inconclusive and do not appear here. Rule as the data show it: active = normalized growth mostly below about 0.91 (no sharp cut-off); inconclusive = no clear call, values can overlap the other calls; inactive = mostly above about 0.92. Some of the results follow.
# output must be one of active, inactive

| COMPOUND | GROUP LABEL |
| --- | --- |
| CC(=O)OC(C)(C)[C@@H]1Cc2cc3ccc(=O)oc3cc2O1 | inactive |
| COc1cc2c(cc1OC)[C@@H]1C(=O)c3ccc4oc(C(C)C)cc4c3O[C@@H]1CO2 | inactive |
| COc1ccc2c(c1OC)C(=O)O[C@H]2[C@H]1c2cc3c(cc2CCN1C)OCO3 | inactive |
| CCN(CC)CCNC(=O)c1cc(Br)c(N)cc1OC | inactive |
| COc1ccc2c(c1OC)C(=O)O[C@@H]2[C@H]1c2cc3c(cc2CCN1C)OCO3 | inactive |

-- ask Please let me know the test result on file for COC1=C(OC)C(=O)C(C/C=C(\C)CC/C=C(\C)CC/C=C(\C)CC/C=C(/C)CC/C=C(\C)CC/C=C(\C)CC/C=C(\C)CC/C=C(\C)CC/C=C(\C)CCC=C(C)C)=C(C)C1=O .
-- reply inactive

-- ask Please let me know the test result on file for COc1ccc2c(c1)O[C@@H]1COc3cc(OC)c(OC)cc3[C@@H]1C2=O .
-- reply active

-- ask Please let me know the test result on file for COc1cc2c(cc1OC)C1C(=O)c3ccc4c(c3OC1CO2)CCC(C)(C)O4 (centres undefined) .
-- reply inactive

-- ask Please let me know the test result on file for CC(C)(OC(=O)c1ccccc1)[C@@H]1Cc2cc3ccc(=O)oc3cc2O1 .
-- reply inactive

====

test: chemical genetic growth profiling, strain panel (AID 1159580);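 note: tested at 20 µM; growth read once vehicle control cultures reached saturation at 30 °C; 1 = growth at the plate median or of vehicle wells; lower values mean less growth of the strain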; conditions: S. cerevisiae deletion strains, growth OD, locus YAL040C, strain CLN3, stronger effect = lower value
About 2,000 (36%) of roughly 5,500 compounds were called active. Not shown: some 18% with an inconclusive outcome. The list shows a part of the results.
Hi there, I'd appreciate the recorded normalized growth for every entry that follows.
One number for each entry.

| COMPOUND | normalized growth |
| --- | --- |
| O=C(O)c1nn(Cc2ccc(Cl)cc2Cl)c2ccccc12 | 1.05 |
| O=c1onc2cnc3ccccc3n12 | 0.984 |
| COc1ccc(OC)c(C(O)C(C)N)c1 (centres undefined) | 0.977 |
| CNCCc1ccc(O)c(O)c1 | 0.991 |
| O=C(Nc1cccc(C(=O)Nc2ccc(S(=O)(=O)O)c3cc(S(=O)(=O)O)cc(S(=O)(=O)O)c23)c1)Nc1cccc(C(=O)Nc2ccc(S(=O)(=O)O)c3cc(S(=O)(=O)O)cc(S(=O)(=O)O)c23)c1 | 1.05 |

Batch request: normalized growth for each of the following compounds.
1. CC(C)(C)c1onc(OCP(=O)(O)O)c1CC(N)C(=O)O (centres undefined)
2. CC(N)C(=O)OC(C)(C)Cc1ccc(Cl)cc1 (centres undefined)
3. CC(=O)OCC1=C(C(=O)O)N2C(=O)C(NC(=O)CSc3ccncc3)C2SC1 (centres undefined)
4. CC(C)(C)NC[C@H](O)COc1nsnc1N1CCOCC1
5. CCCN(CCC)CCc1ccc(O)c(O)c1
6. OCc1ccc(-c2nn(Cc3ccccc3)c3ccccc23)o1

-- reply
1
1
0.974
1.03
1.03
1.06
